- Assayed System: Human CD22 extracellular segment conjugated His label (human, UniProt P20273 20-687)
- Test Protocol: ELISA
Quantity: pEC50
Numbers only, as −log10 of the molar value.

Challenge: I am curious: what pEC50 value has been reported for CD22 antibody FC2-117 (antibody, V domains shown) VH: DVQLQESGPGLVKPSQSLSLTCSVTGYSITSGYYWNWIRQFPGNKLEWMGYISYDGSNNYNPSLKNRISITRDTSKNQFFLKLNSVTTEDTATYYCTKGGYGYYFDYWGQGTTLTVSS VL: DIQMTQSPASLSASVGETVTITCRASGNIHNYLAWYQQKQGKSPQLLVYNAKTLADGVPSRFSGSGSGTQYSLKINSLQPEDFGSYYCQHFWSTPPTFGGGTKLEIKR ?
Response given: 9.20
